- System: SNB-75
- Assay text: NCI tumour cell line growth inhibition, 48 h
Active and inactive are the calls of the source. Cut-off read from the data, not from the text of the source: active = GI50 up to about 1.1 µM and inactive = higher.
For each entry below, report its GI50 value.

Field: GI50. Fill in for each record below.
1. COc1ccc(CNc2nc3ccccc3nc2-c2cccs2)cc1
2. Cc1cc2nc3c(C#N)c4c(c(Cl)n3c2cc1C)CCC4
3. NNC(=S)N/N=C(/C(=O)Nc1cc(Cl)ccc1Cl)C1C(=O)Nc2ccccc2[S+]1[O-] (stereo unspecified)

**Result**
["> 100 µM (inactive)", "> 100 µM (inactive)", "> 100 µM (inactive)"]

----------
- Test system: OVCAR-5
- Assay text: NCI tumour cell line growth inhibition, 48 h
Calls of active or inactive are those of the source. Cut-off read from the data, not from the text of the source: active = GI50 up to about 1.1 µM and inactive = higher.
Metric: GI50

[
  {
    "Molecule": "Nc1nc(Cl)cc(NCC2(CO)COC2)n1",
    "Subject of test": "OVCAR-5",
    "GI50": "> 100 µM (inactive)"
  },
  {
    "Molecule": "COc1ccc(C=O)cc1O[Si](C)(C)C(C)(C)C",
    "Subject of test": "OVCAR-5",
    "GI50": "> 100 µM (inactive)"
  },
  {
    "Molecule": "CC(C)c1ccc(/C=C(\\NC(=O)c2ccccc2)c2nc3ccccc3[nH]2)cc1",
    "Subject of test": "OVCAR-5",
    "GI50": "75.3 µM (inactive)"
  }
]

Field: GI50. Fill in for each record below.
1. Nc1nc(Cl)c(C=O)c(NCC2(CO)CCC2)n1
2. CC1(C)CC(=O)c2c(nc3ccc4ccccc4c3c2-c2ccc(NC(=O)CCCCC(=O)Nc3ccc(-c4c5c(nc6ccc7ccccc7c46)CC(C)(C)CC5=O)cc3)cc2)C1
3. COc1cccc(C2CC(C)=Nc3c(ccc4c3C(=O)c3ccccc3C4=O)N2)c1O (stereo unspecified)
4. Cl.O=C(O)c1cccnc1
5. COc1ccc(C2=C3c4cc(OC)c(OC)cc4CCN3C(=S)SS2)cc1OC
6. BrCC[N+]12CCCN1CCC2

**Result**
> 100 µM (inactive)
> 100 µM (inactive)
> 100 µM (inactive)
64.4 µM (inactive)
> 100 µM (inactive)
21.5 µM (inactive)

Field: GI50. Fill in for each record below.
1. COC(=O)C1C=NNC1C(=O)OC (stereo unspecified)
2. COCCOc1nc(-c2ccccc2)nc2ccccc12

**Result**
> 100 µM (inactive)
> 100 µM (inactive)

----------
- System: RPMI-8226
- Assay text: NCI tumour cell line growth inhibition, 48 h
Active and inactive are the calls of the source. Rule as the data show it: active = GI50 up to about 1.1 µM and inactive = higher.
For each entry below, report its GI50 value.

Worked examples, 5 compounds total:
[
  {
    "Compound": "O=C1C2=Cc3ccccc3OC2(O)Oc2ccccc21 (stereo not drawn)",
    "Reading": "> 100 µM (inactive)"
  },
  {
    "Compound": "COc1cccc(C2SC(=N)Nc3c2c(C)nn3C(=O)Cc2ccccc2)c1 (stereo not drawn)",
    "Reading": "> 100 µM (inactive)"
  },
  {
    "Compound": "O=C(NCCCN1CCN(CCCNC(=O)c2cccc3ccccc23)CC1)c1cccc2ccccc12",
    "Reading": "> 100 µM (inactive)"
  },
  {
    "Compound": "CCC(C)OC(=O)/C(Br)=C1/OC(=O)c2ccccc2-c2ccccc21 (stereo not drawn)",
    "Reading": "22.3 µM (inactive)"
  },
  {
    "Compound": "Cn1c2c(c3ccccc31)CCN(CCCCN1CCN(c3cccc(Cl)c3)CC1)C2=O",
    "Reading": "5.66 µM (inactive)"
  }
]

Field: GI50. Fill in for each record below.
1. Cc1cc2c3ccccc3n(C)c2c2c1C(=O)c1ccccc1C2=O
2. COC(=O)/C(C#N)=C1\NN=NN1CCCN1CCOCC1

**Result**
["6.3 µM (inactive)", "> 100 µM (inactive)"]

Field: GI50. Fill in for each record below.
1. Cc1c(CCl)c(=O)oc2c(C)c3occ(CCl)c(=O)c3cc12
2. COc1ccc(/C=N/n2cnc3[nH]c(C)c(Cc4ccccc4)c3c2=N)cc1
3. C=C(C)C12CC(COC(=O)c3ccccc3)C34OC5(OC1C3C1OC1(CO)C(O)C1(O)C(OC(=O)c3ccccc3)C(C)C(C(C)CCCCCCC5O)C14)O2 (stereo not drawn)
4. CCC(C)C(NC(=O)C(CCCCN)NC(=O)C(NC(=O)C(CCC(N)=O)NC(=O)C(CCCNC(=N)N)NC(C)=O)C(C)CC)C(=O)NC(Cc1c[nH]c2ccccc12)C(=O)NC(Cc1ccccc1)C(=O)NC(CCC(N)=O)C(=O)NC(CC(N)=O)C(=O)NC(CCCNC(=N)N)C(=O)NC(CCCNC(=N)N)C(=O)NC(CCSC)C(=O)NC(CCCCN)C(=O)NC(Cc1c[nH]c2ccccc12)C(=O)NC(CCCCN)C(=O)NC(CCCCN)C(N)=O (stereo not drawn)
5. CC1(C)C[C@H]2C=C(C=O)[C@]34C[C@]3(C(=O)OC4O)[C@H]2C1 (stereo partly drawn)
6. O=C1O[C@H](C(Cl)(Cl)Cl)N2CCCC12 (stereo partly drawn)
7. Cc1nc2c(o1)C(=O)c1ccccc1/C2=N/c1ccc(N2CCOCC2)cc1
8. NC(=O)C1N=NSC1NC(=O)c1ccc([N+](=O)[O-])cc1 (stereo not drawn)

**Result**
["8.69 µM (inactive)", "34.8 µM (inactive)", "18.8 µM (inactive)", "11.2 µM (inactive)", "4.54 µM (inactive)", "> 100 µM (inactive)", "3.38 µM (inactive)", "26.4 µM (inactive)"]

Field: GI50. Fill in for each record below.
1. CCN(CC)c1ccc(C2Nc3ccc4ccccc4c3C3=C2C(=O)CCC3)cc1 (stereo not drawn)
2. C=CC[N+](CCO)(CCO)CCCCCCCCCCCCCCCCCC
3. Nc1nc(Cl)c(C=O)c(NCC2(CO)CCC2)n1

**Result**
1. > 100 µM (inactive)
2. 2.25 µM (inactive)
3. 39.7 µM (inactive)
